ASSAY_OVERVIEW: inhibitors of TNFa-induced NFkB p65 translocation, primary screen, imaging, HUVEC, MLSMR starter and 10KST1 sets (AID 438);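 note: compound added about 3h40 before a 20 min TNFalpha stimulation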
COND: HUVEC TNFa-induced p65 nuclear translocation; measured here: nuclei count (cytotoxicity indicator), at 2.08 µM
Listed next: entries and their corresponding cell count.

# CHEM_SMILES, cell count
records = [
    ("CCOC(=O)c1ccccc1NC(=O)c1ccc2c(=O)n3c(nc2c1)CCCCC3", 472),
    ("COc1cccc(S(=O)(=O)Nc2ccc(C(=O)N3CCN(C(=O)c4ccco4)CC3)cc2)c1", 448),
    ("CC(C)OC(=O)CN1C(=O)C(C)(C)Oc2ccc(C(=O)NC3CC3)cc21", 537),
    ("CCOc1ccc(N(CC(=O)OC)S(=O)(=O)c2ccc(OC)c(OC)c2)cc1", 444),
    ("Cc1ccc(N2CCN(C(=O)c3ccccc3)CC2)c(C)c1", 484),
]

###

ASSAY_OVERVIEW: blockers of RIG-like receptor reporter activation – cell-based, Sendai virus stimulus, luciferase, 10K MLSCN set, TLR/RLR signaling modifier project, primary screen (AID 602276);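 note: firefly luciferase from ISG56 promoter only with Renilla not read in this screen; 0% = Sendai virus plus DMSO and 100% = medium plus DMSO without virus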
COND: HEK293 RL24 IRF3 luciferase reporter, at 10 µM, stronger effect = higher value

# COMPOUND, inhibition / %
records = [
    ("COc1ccc(NC(=O)CSc2nc3c(c(=O)n2-c2ccccc2OC)SCC3)cc1", 4.03),
    ("CCOc1ccc(CN2C(=O)c3ccccc3C2C(=O)NCc2cccnc2)cc1 (stereo unspecified)", 8.35),
    ("Cc1nnc(SCc2ccccc2F)n1NCc1cccs1", -2.84),
    ("CC1=C(C(=O)OCc2ccccc2)C(c2ccco2)n2ncnc2N1 (stereo unspecified)", 9.4),
    ("Cc1csc(NC(=O)c2ccoc2C)n1", -53.3),
    ("Cc1ccc2c(c1)NC(=O)C(CC(=O)NC1CCCCC1C)O2 (stereo unspecified)", 9.73),
    ("CCOC(=O)c1ccccc1NC(=O)c1ccc(NS(C)(=O)=O)cc1", 6.8),
    ("COc1cc(NS(=O)(=O)N2CCCC2)cc(OC)c1OC", 7.48),
    ("CCOC(=O)Cc1nnc2c(Nc3ccccc3F)nc3nonc3n12", 7.74),
    ("COc1cc2c(cc1OC)CN(C(=O)COc1ccc(C)c(C)c1)CC2", 18.6),
    ("O=C(CCC(=O)N1CCc2ccccc2C1)N1CCN(S(=O)(=O)c2ccccc2)CC1", -9.4),
]

###

ASSAY_OVERVIEW: endothelial E-selectin expression blockers – imaging, HUVEC, immunofluorescence, MLSMR starter and 10KST1 sets, primary screen (AID 487);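 note: signal is fraction of cell area covered by stained E-selectin grains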
COND: HUVEC TNFalpha-induced E-selectin immunofluorescence imaging, at 2 µM; stronger effect = higher value
Class key for inhibition values: low = under -50%, intermediate = from -50% up to -20%, high = -20% and over

# MOLECULE, GROUP_LABEL
records = [
    ("O=C1c2ccccc2C(Nc2cccnc2)N1Cc1ccccc1Cl (centres undefined)", "intermediate"),
    ("COc1cc(CN2CCC(C(=O)NC3CCCC3)CC2)ccc1O", "intermediate"),
    ("O=C(NCCN1C(=O)C2C3C=CC(C3)C2C1=O)N1CCOCC1 (centres undefined)", "high"),
    ("O=C(NC1CC1)c1ccc(S(=O)(=O)NCC2CCCCC2)cc1", "low"),
    ("Cc1cc(C(=O)OCCO)c(C#N)c(N)n1", "intermediate"),
    ("CC(=O)c1ccccc1NS(=O)(=O)c1c(C)nn(-c2ccccc2)c1C", "low"),
    ("CC(=O)Nc1c(C(=O)O)[nH]c2ccccc12", "intermediate"),
    ("CCc1nn(CC(=O)N2CCN(Cc3ccc4c(c3)OCO4)CC2)c(=O)c2cc3occc3n12", "high"),
    ("O=C1CCCC(O)=C1C=Nc1ccc2c(c1)oc1ccccc12", "high"),
    ("C=CCn1c(=O)c(C(=O)Nc2ccccc2C(=O)OCC)c(O)c2ccccc21", "intermediate"),
    ("CN1CCN(C(=O)c2ccc(CS(=O)(=O)c3c(Cl)cccc3Cl)o2)CC1", "intermediate"),
    ("C=CCN1C(=O)CS/C1=C(\\C#N)S(=O)(=O)c1ccc(C)cc1", "low"),
    ("CC1(C)Cc2cccc(OCC(=O)O)c2O1", "low"),
    ("CC(=O)N1CCN=C1SCc1c(F)cccc1Cl", "high"),
    ("CC(C)C(=O)Nc1ccc(C(=O)NCc2cccnc2)cc1", "low"),
    ("CN(C1CCS(=O)(=O)C1)S(=O)C12CC3CC(CC(C3)C1)C2 (centres undefined)", "high"),
    ("Cn1c(-c2cc(Br)ccc2O)n[nH]c1=S", "low"),
    ("CNC(=O)CSc1nnc(-c2cc3c(C)nn(-c4ccccc4)c3s2)n1C", "intermediate"),
    ("COc1cccc(-c2nnn(CC(=O)O)n2)c1", "low"),
    ("CC1=C(C(N)=O)C(c2ccccn2)n2nc(SCc3ccccc3)nc2N1 (centres undefined)", "high"),
    ("COC(=O)c1[nH]c2c(c1C)C(=O)CC(c1cc(OC)ccc1OC)C2 (centres undefined)", "intermediate"),
    ("Cc1occc1C(=O)N1CCN(Cc2ccccc2)CC1", "intermediate"),
    ("CCOC(=O)c1ccc(N2Cc3cc(C)c(C)cc3C2)cc1O", "intermediate"),
]

###

Listed next: entries and their corresponding inhibition.
ASSAY_OVERVIEW: TLR3 IRF3 reporter activation blockers – cell-based, poly I:C stimulus, luciferase, 10K MLSCN set, primary screen (AID 602277)
COND: HEK293-TLR3 RL24 IRF3 luciferase reporter, at 10 µM, stronger effect = higher value

# MOLECULE, inhibition (%)
records = [
    ("Cc1ccc2c(c1C)NC(=O)C2(O)CC(=O)c1ccc2c(c1)OCO2 (stereo unspecified)", 25.3),
    ("CCCCNC(=O)c1nc2ncc(Br)cn2n1", 22.4),
    ("O=c1c2ccccc2nc2n1CCN2", 20.6),
    ("CCn1c(Cc2ccccc2)nnc1SCC(=O)Nc1cc(C)on1", 23),
    ("CCN1CCN(Cc2nc3c(c(=O)n(C)c(=O)n3C)n2CC(=O)c2ccccc2)CC1", 38.5),
    ("CC(=O)Nc1ccc(OCC(O)Cn2nc(C)nc2C)cc1 (stereo unspecified)", 23.2),
]

###

TESTED_TARGET: Alpha-2C adrenergic receptor (Homo sapiens) (UniProt P18825)
Sequence (P18825 whole entry, looked up): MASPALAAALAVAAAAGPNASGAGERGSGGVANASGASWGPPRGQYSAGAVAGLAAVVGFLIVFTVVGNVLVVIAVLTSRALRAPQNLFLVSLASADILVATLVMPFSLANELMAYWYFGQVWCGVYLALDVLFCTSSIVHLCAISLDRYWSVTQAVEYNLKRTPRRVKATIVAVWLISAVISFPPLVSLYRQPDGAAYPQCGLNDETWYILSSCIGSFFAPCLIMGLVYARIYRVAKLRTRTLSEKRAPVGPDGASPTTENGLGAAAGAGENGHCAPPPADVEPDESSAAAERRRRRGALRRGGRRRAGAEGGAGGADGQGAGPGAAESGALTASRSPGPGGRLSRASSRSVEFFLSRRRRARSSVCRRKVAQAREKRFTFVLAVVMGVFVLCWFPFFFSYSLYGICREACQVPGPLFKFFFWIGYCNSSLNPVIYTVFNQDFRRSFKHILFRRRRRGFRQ
ASSAY_OVERVIEW: compounds altering alpha2C-coupled GIRK flux – cell-based, HEK293 alpha2C/GIRK1/2, thallium flux, primary screen (AID 624);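 note: slope of fluorescence ratio to pre-addition baseline per second over 15 to 24 s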
COND: thallium flux BTC fluorescence, at 10 µM, actives lie on both sides
MEASURE: slope

# COMPOUND, TESTED_TARGET, VALUE_MEASURED
records = [
    ("CSCCC(NC(=O)c1ccco1)C(=O)OC(C)C(=O)NC(=O)NC1CCCCC1 (stereo not drawn)", "Alpha-2C adrenergic receptor (Homo sapiens) (UniProt P18825)", 0.00394),
    ("CCc1ccc(Nc2cc(=O)n(C3CCCCC3)c(=O)[nH]2)cc1", "Alpha-2C adrenergic receptor (Homo sapiens) (UniProt P18825)", 0.00696),
    ("CCCC(=O)Nc1nnc(Sc2ccc(N(C)C)cc2)s1", "Alpha-2C adrenergic receptor (Homo sapiens) (UniProt P18825)", 0.00582),
    ("Cc1nc(CCNS(=O)(=O)c2cccs2)cs1", "Alpha-2C adrenergic receptor (Homo sapiens) (UniProt P18825)", 0.00608),
    ("Cc1ccccc1N(C)S(=O)(=O)c1ccc2[nH]cc(C(=O)NCC3CCCO3)c(=O)c2c1 (stereo not drawn)", "Alpha-2C adrenergic receptor (Homo sapiens) (UniProt P18825)", 0.00343),
    ("CC(=O)Nc1ccc(OC(=O)c2cccs2)cc1", "Alpha-2C adrenergic receptor (Homo sapiens) (UniProt P18825)", 0.00674),
    ("Cc1c2cnn(CC(=O)N3CCN(c4ncccn4)CC3)c(=O)c2c(C)n1Cc1ccc(F)cc1", "Alpha-2C adrenergic receptor (Homo sapiens) (UniProt P18825)", 0.00444),
    ("O=C(NCCC1=CCCCC1)c1cc2c(s1)CS(=O)(=O)C2", "Alpha-2C adrenergic receptor (Homo sapiens) (UniProt P18825)", 0.00559),
    ("CC(C)OC(=O)CSc1nnc(-c2ccc(C(C)(C)C)cc2)n1N", "Alpha-2C adrenergic receptor (Homo sapiens) (UniProt P18825)", 0.00343),
    ("CC(C)COc1ccc(C2NC(=O)NC2=O)cc1 (stereo not drawn)", "Alpha-2C adrenergic receptor (Homo sapiens) (UniProt P18825)", 0.00367),
    ("CC1(C)Cc2cccc(OCC(O)CN3CCN(c4ccccn4)CC3)c2O1 (stereo not drawn)", "Alpha-2C adrenergic receptor (Homo sapiens) (UniProt P18825)", 0.00547),
    ("Cc1c(C(=O)OCC(C)C)[nH]c2c1C(=O)CC(c1ccco1)C2 (stereo not drawn)", "Alpha-2C adrenergic receptor (Homo sapiens) (UniProt P18825)", 0.00635),
    ("CCCCSc1nc2c(cnn2-c2ccc(F)cc2)c(=O)[nH]1", "Alpha-2C adrenergic receptor (Homo sapiens) (UniProt P18825)", 0.00558),
    ("O=C(c1ccc(Cl)s1)N1CCN(c2nc3ccccc3s2)CC1", "Alpha-2C adrenergic receptor (Homo sapiens) (UniProt P18825)", 0.00557),
    ("CCOc1ccc(C2CC(c3cccc(C)c3)n3ncnc3N2)cc1 (stereo not drawn)", "Alpha-2C adrenergic receptor (Homo sapiens) (UniProt P18825)", 0.0075),
    ("CCOC(=O)C1CCCN(c2c(N3CCN(c4ccccn4)CC3)c(=O)c2=O)C1 (stereo not drawn)", "Alpha-2C adrenergic receptor (Homo sapiens) (UniProt P18825)", 0.00587),
    ("Cn1nnnc1SCC(=O)NC1CCCCC1", "Alpha-2C adrenergic receptor (Homo sapiens) (UniProt P18825)", 0.00705),
    ("CCn1nc(CC(=O)Nc2nnc(CC(=O)N3CCCCC3)s2)c2ccccc2c1=O", "Alpha-2C adrenergic receptor (Homo sapiens) (UniProt P18825)", 0.00348),
    ("COc1ccc(C(=O)N2CCN(C3CCC(c4ccccc4)CC3)CC2)cc1OC (stereo not drawn)", "Alpha-2C adrenergic receptor (Homo sapiens) (UniProt P18825)", 0.00292),
    ("O=C(NCCC1=CCCCC1)N[C@@H](Cc1ccccc1)C(=O)O", "Alpha-2C adrenergic receptor (Homo sapiens) (UniProt P18825)", 0.00549),
    ("NC(=O)CN1C(=O)C(O)(CC(=O)c2ccccc2O)c2ccccc21 (stereo not drawn)", "Alpha-2C adrenergic receptor (Homo sapiens) (UniProt P18825)", 0.00547),
    ("COc1cc(C2N=C(c3ccccc3)NO2)cc(Br)c1O (stereo not drawn)", "Alpha-2C adrenergic receptor (Homo sapiens) (UniProt P18825)", 0.00675),
    ("COc1ccc(C(=O)Nc2nc(C)c(C(=O)N(C)C)s2)cc1OC", "Alpha-2C adrenergic receptor (Homo sapiens) (UniProt P18825)", 0.00371),
]
